Assay: reduction of polyQ htt aggregates in cells – imaging, exon1htt(103Q)mCFP cells, high-content imaging, primary screen (AID 483);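 note: compound exposure lasted 3 days before fixation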
Conditions: exon1htt(103Q)mCFP cell line, aggregate imaging, at 2 µM; active compounds read high
endpoint name: inhibition of aggregation (%)
One number for each entry, in %.

molecule=COc1cccc(-c2cc(C(=O)Nc3cc(OC)c(OC)c(OC)c3)no2)c1 endpoint_name="inhibition of aggregation" val=1.1
molecule=CCSc1nc2c(c(=O)n(C)c(=O)n2C)n1Cc1ccc(Cl)cc1 endpoint_name="inhibition of aggregation" val=0.4

// each listed molecule needs a value for inhibition of aggregation
1. COc1ccc(S(=O)(=O)N2CCN(C3CCCCCCC3)CC2)cc1
2. COCCn1c(SCC(=O)Nc2nnc(C)s2)nnc1-c1ccncc1
3. COc1ccc(Cl)cc1NC(=O)c1oc(C)nc1C
4. C=CCC(NCc1ccco1)c1ccc(OC)cc1OC (stereo unspecified)

Output:
1. 5.1
2. 7.7
3. -0.3
4. 4.4
